Test system: HCV genotype 1b (Con1) replicon in HUH-7 cells
Test: HCV replicon luciferase reporter assay, genotype 1b
Format: cell-based
Conditions: Hepatitis C virus, Huh-7, 72 h, HCV genotype 1b replicon luciferase, 3 days incubation, read-out: LE_1b (EC50, range)
Give measured EC50 for each item. Keep answers brief.

[[record]]
structure_smiles_string = "CCOc1nnc(O[C@@H]2C[C@H]3C(=O)N[C@]4(C(=O)NS(=O)(=O)C5(C)CC5)C[C@H]4/C=C\\CC[C@H](C)C[C@@H](CC)[C@H](NC(=O)OC(C)(C)C(F)(F)F)C(=O)N3C2)c2ccccc12"
assay_result = "4.82 to 103 nM"


We now examine a further molecule.
GET /values?readout=EC50&item= COc1nnc(O[C@@H]2C[C@H]3C(=O)N[C@]4(C(=O)NS(=O)(=O)C5CC5)C[C@H]4/C=C\CC[C@H](C)C[C@@H](C)[C@H](NC(=O)OC(C)(C)C)C(=O)N3C2)c2ccccc12
< 5.46 nM

###

Tested on: HCV genotype 1b (Con1) replicon in HUH-7 cells
Assay: HCV replicon luciferase reporter assay, genotype 1b
Type: cell-based
Settings: Hepatitis C virus, Huh-7, 72 h, HCV genotype 1b replicon luciferase, 3 days incubation, read-out: LE_1b (EC50, range)
pEC50: −log10 of the molar value.
endpoint-name: pEC50

Would you mind giving pEC50 for every compound in the list below?
1. COc1ccc2nc(C)c(O[C@@H]3C[C@H]4C(=O)N[C@]5(C(=O)NS(=O)(=O)C6(CF)CC6)C[C@H]5/C=C\CC[C@@H](C)C[C@@H](C)[C@H](NC(=O)OC(C)(C)C)C(=O)N4C3)nc2c1
2. COc1cc2ccnc(O[C@@H]3C[C@H]4C(=O)N[C@]5(C(=O)NS(=O)(=O)C6CC6)C[C@H]5/C=C\CC[C@@H](C)C[C@@H](C)[C@H](NC(=O)OC(C)(C)C)C(=O)N4C3)c2cc1OC
3. [2H]C([2H])([2H])C(OC(=O)N[C@@H]1C(=O)N2C[C@H](Oc3nccc4c5c(ccc34)N(C)CCO5)C[C@H]2C(=O)N[C@]2(C(=O)NS(=O)(=O)C3CC3)C[C@H]2/C=C\CC[C@@H](C)C[C@H]1C)(C([2H])([2H])[2H])C([2H])([2H])[2H]
4. CCOc1cc2ccnc(O[C@@H]3C[C@H]4C(=O)N[C@]5(C(=O)NS(=O)(=O)C6CC6)C[C@H]5/C=C\CC[C@@H](C)C[C@@H](CC)[C@H](NC(=O)OC(C)(C)C)C(=O)N4C3)c2cc1F

> 8.26
8.30 to 9.00
> 8.26
9.00 to 9.29

###

Give measured EC50 for each item. Keep answers brief.
Tested on: HCV genotype 1b (Con1) replicon in HUH-7 cells
Assay: HCV replicon luciferase reporter assay, genotype 1b
Type: cell-based
Conditions: Hepatitis C virus, Huh-7, 72 h, HCV genotype 1b replicon luciferase, 3 days incubation, read-out: LE_1b (EC50, range)

Solved entries (count: 3):
[[record]]
molecule = "COc1nnc(O[C@@H]2C[C@H]3C(=O)N[C@]4(C(=O)NS(=O)(=O)C5(C)CC5)C[C@H]4/C=C\\CC[C@@H](C)C[C@@H](C)[C@H](NC(=O)O[C@@H]4C[C@@H]5C[C@@H]5C4)C(=O)N3C2)c2ccccc12 [Compound 5014]"
target_under_test = "HCV genotype 1b (Con1) replicon in HUH-7 cells"
assay_result = "< 5.46 nM"

[[record]]
molecule = "C[C@@H]1CC/C=C\\[C@@H]2C[C@@]2(C(=O)NS(=O)(=O)C2CC2)NC(=O)[C@@H]2C[C@@H](Oc3nccc4c5c(ccc34)N(C)CCO5)CN2C(=O)[C@@H](NC(=O)O[C@@H]2C[C@@H]3C[C@@H]3C2)[C@H](C)C1 [Compound 5292]"
target_under_test = "HCV genotype 1b (Con1) replicon in HUH-7 cells"
assay_result = "< 5.46 nM"

[[record]]
molecule = "[2H]C([2H])([2H])C(OC(=O)N[C@@H]1C(=O)N2C[C@H](Oc3nccc4c5c(ccc34)N(C)CCO5)C[C@H]2C(=O)N[C@]2(C(=O)NS(=O)(=O)C3CC3)C[C@H]2/C=C\\CC[C@@H](C)C[C@H]1C)(C([2H])([2H])[2H])C(F)(F)F [Compound 5280]"
target_under_test = "HCV genotype 1b (Con1) replicon in HUH-7 cells"
assay_result = "< 5.46 nM"


We now examine a further molecule.
Observed EC50 on HCV genotype 1b (Con1) replicon in HUH-7 cells for C[C@@H]1CC/C=C\[C@@H]2C[C@@]2(C(=O)NS(=O)(=O)C2(C)CC2)NC(=O)[C@@H]2C[C@@H](Oc3nc4c(c5ccccc35)CCCO4)CN2C(=O)[C@@H](NC(=O)OC(C)(C)C)[C@H](C)C1 [Compound 6044] , please.
0.1 to 0.5 nM
